# measurement-target: T1, human MSLN-FL-his protein (human, UniProt Q13421 296-580)
# T1 construct: made in HEK293E cells, purified on nickel column; also called hMSLN-FL-his; human MSLN full-length protein; not shown: His tag
# T1 sequence (Q13421 other isoform, or with tags, fused parts or gaps): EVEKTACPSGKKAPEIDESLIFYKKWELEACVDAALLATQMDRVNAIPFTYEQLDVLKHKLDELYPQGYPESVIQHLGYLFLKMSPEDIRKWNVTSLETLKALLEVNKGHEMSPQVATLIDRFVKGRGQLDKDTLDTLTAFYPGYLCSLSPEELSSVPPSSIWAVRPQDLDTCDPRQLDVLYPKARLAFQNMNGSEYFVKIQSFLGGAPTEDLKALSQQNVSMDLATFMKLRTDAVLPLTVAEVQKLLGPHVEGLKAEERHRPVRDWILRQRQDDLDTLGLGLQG
# measurement-protocol: SPR (Biacore), antibody captured on Protein A chip;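 further: flow cell at 25 °C, antigen injected for 240 s at five concentrations from 200 nM downward, dissociation followed up to 600 s, double-referenced, fitted with Langmuir 1:1 model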
Overview of recorded pKd for various binders
Scale: pKd equals -log10([C]), with [C] in mol/L.

# input Name the recorded pKd of the binder listed here: S009-F7.18.10 (antibody, human IgG1, kappa, V domains shown, human-murine chimeric antibody, human IgG1/kappa constant regions) VH: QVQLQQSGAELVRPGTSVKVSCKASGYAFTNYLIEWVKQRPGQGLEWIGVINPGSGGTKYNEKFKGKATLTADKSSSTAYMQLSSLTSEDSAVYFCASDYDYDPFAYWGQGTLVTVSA VL: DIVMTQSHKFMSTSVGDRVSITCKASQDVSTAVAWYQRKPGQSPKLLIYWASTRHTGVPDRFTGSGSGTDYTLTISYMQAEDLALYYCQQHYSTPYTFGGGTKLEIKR
# output 9.19

# input In one line, give reported pKd of the entry S009-F7.61.21 (antibody, human IgG1, kappa, V domains shown, human-murine chimeric antibody, human IgG1/kappa constant regions) VH: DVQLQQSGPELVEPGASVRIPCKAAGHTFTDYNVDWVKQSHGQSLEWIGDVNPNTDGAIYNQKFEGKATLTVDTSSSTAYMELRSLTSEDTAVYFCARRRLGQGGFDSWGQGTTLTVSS VL: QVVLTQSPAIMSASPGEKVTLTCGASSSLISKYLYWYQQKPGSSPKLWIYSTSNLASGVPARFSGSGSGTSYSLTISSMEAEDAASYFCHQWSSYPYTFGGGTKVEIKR .
# output 8.30

Continuing:
# input Query pKd for S009-F7.21.16 (antibody, human IgG1, kappa, V domains shown, human-murine chimeric antibody, human IgG1/kappa constant regions) VH: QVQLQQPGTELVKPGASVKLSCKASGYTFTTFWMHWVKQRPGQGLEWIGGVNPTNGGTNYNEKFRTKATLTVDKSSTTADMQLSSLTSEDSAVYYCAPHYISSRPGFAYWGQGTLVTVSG VL: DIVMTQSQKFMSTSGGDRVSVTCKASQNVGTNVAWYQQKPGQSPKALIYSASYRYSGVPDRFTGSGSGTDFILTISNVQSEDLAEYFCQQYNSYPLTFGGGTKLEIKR
# output 8.77

# input Supply pKd value. Item: S009-F7.12.13 (antibody, human IgG1, kappa, V domains shown, human-murine chimeric antibody, human IgG1/kappa constant regions) VH: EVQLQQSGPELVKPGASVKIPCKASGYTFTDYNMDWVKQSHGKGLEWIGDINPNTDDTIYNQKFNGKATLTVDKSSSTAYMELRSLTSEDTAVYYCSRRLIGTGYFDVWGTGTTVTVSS VL: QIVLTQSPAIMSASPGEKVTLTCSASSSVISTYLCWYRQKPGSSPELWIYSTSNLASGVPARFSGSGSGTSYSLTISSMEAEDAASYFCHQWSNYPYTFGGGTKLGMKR
# output 7.39

# input Quickly give me recorded pKd for S009-F8-24.14 (antibody, human IgG1, kappa, V domains shown, human-murine chimeric antibody, human IgG1/kappa constant regions) VH: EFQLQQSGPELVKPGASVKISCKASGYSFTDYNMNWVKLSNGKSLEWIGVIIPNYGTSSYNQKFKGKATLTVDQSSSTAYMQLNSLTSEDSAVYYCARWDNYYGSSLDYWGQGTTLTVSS VL: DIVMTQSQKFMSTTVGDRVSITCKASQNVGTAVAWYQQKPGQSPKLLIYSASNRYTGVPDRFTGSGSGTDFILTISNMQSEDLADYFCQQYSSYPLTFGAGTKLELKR
# output 8.04
